# TARGET_OR_SYSTEM: human PPAR alpha (Homo sapiens)
# Sequence (Q07869 whole entry): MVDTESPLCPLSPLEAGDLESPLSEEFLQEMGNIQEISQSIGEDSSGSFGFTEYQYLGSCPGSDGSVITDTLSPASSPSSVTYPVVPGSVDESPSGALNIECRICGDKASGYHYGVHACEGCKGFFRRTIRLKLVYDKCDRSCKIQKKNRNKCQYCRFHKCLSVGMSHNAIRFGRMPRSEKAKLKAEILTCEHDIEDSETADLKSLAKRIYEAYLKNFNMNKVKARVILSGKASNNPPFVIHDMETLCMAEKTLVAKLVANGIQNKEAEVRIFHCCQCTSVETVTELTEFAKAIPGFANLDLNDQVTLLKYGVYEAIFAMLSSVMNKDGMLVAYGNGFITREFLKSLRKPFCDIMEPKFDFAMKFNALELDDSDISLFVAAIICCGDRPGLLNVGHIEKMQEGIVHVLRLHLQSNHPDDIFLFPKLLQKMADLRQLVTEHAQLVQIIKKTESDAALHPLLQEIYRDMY
# TEST_METHOD_NOTES: PPAR alpha assay as described in WO03/051821
# TEST_PARAMETERS: assay described in WO03/051821 (incorporated by reference)
QUANTITY: EC50 (nM)

>>> readout_number("O=C(c1ccccc1)c1ccc(OCCc2ccc(CC(SCCc3ccc(O)cc3)C(=O)O)cc2)cc1 (stereo not shown) [Example 7]")
780
